Measured values drawn from patent US20250340557A1 for this set.

pIC50 for assorted compounds
target_or_test_system: human mPGES-1 (Homo sapiens)
Construct: made in house; host or cells: COS-1 cells (transient transfection; microsomal fraction used as enzyme)
Sequence (O14684 whole entry): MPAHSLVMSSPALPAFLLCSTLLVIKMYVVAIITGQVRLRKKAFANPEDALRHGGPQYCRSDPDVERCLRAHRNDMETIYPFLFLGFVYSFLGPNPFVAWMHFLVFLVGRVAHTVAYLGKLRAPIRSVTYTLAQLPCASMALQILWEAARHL
assay_protocol: Test for mPGES-1 inhibitory activity (microsomal enzyme, PGE2 EIA)
Format: biochemical
experimental_setup: microsomes from COS-1 cells transfected with human mPGES-1 cDNA; substrate PGH2 1 μM; 4° C., 4 minutes; PGE2 measured by EIA; read-out: h mPGES1 IC50
Reminder that pIC50 is minus the log10 of a molar concentration.

Take a look at these entries with their results.
structure_smiles_string | pIC50
O=c1cc(C(F)(F)F)nc(-c2c(C(F)(F)F)ccc(CNC(=O)[C@H]3C[C@H](OCc4ccc(Cl)cc4)C3)c2F)[nH]1 | 9.00
Cc1ccc(N2CCC(C(=O)NCc3ccc(C(F)(F)F)c(-c4nc(C(F)(F)F)cc(=O)[nH]4)c3F)CC2)cc1 | 9.06

What does the record list as pIC50 for Cc1cc(=O)[nH]c(-c2c(C(F)(F)F)ccc(CNC(=O)[C@H]3CC[C@H](OCc4cccc(C(F)(F)F)c4)CC3)c2F)n1 ?
8.00

* * *

target_or_test_system: human mPGES-1 (Homo sapiens)
Construct: made in house; host or cells: COS-1 cells (transient transfection; microsomal fraction used as enzyme)
assay_protocol: Test for mPGES-1 inhibitory activity (microsomal enzyme, PGE2 EIA)
Type: biochemical
experimental_setup: microsomes from COS-1 cells transfected with human mPGES-1 cDNA; substrate PGH2 1 μM; 4° C., 4 minutes; PGE2 measured by EIA; read-out: h mPGES1 IC50
assay_metric: IC50

structure_smiles_string | readout_value
Cc1cccc2ccc(N3CC(C(=O)NCc4ccc(C(F)(F)F)c(-c5nc(C(F)(F)F)cc(=O)[nH]5)c4F)C3)nc12 | < 10 nM
Cc1cc(=O)[nH]c(-c2c(C(F)(F)F)ccc(CNC(=O)C3CCN(c4ccc(C(F)(F)F)cn4)CC3)c2F)n1 | < 1 nM
O=c1cc(C(F)(F)F)nc(-c2c(C(F)(F)F)ccc(CNC(=O)[C@H]3C[C@H](OCc4ccccc4Cl)C3)c2F)[nH]1 | 2 nM
O=C(NCc1ccc(C(F)(F)F)c(-c2nc(C(F)(F)F)cc(=O)[nH]2)c1F)C1(F)CCN(c2ccc(C(F)(F)F)cn2)CC1 | 7.8 nM
O=C(NCc1ccc(C(F)(F)F)c(-c2nccc(=O)[nH]2)c1F)C1CCN(c2ccc(C(F)(F)F)cn2)CC1 | < 1 nM
O=C(NCc1ccc(C(F)(F)F)c(-c2nc(C(F)(F)F)cc(=O)[nH]2)c1F)C1CCN(c2ccc(Cl)cc2F)CC1 | 10 nM
O=C(NCc1ccc(C(F)(F)F)c(-c2nc(C(F)(F)F)cc(=O)[nH]2)c1F)C1CCN(c2ccc(Cl)c(F)c2)CC1 | 5 nM
Cc1nc(-c2c(C(F)(F)F)ccc(CNC(=O)C3CCN(c4ccc5cccc(C)c5n4)CC3)c2F)[nH]c(=O)c1C | 2.4 nM
Cc1cc(=O)[nH]c(-c2c(C(F)(F)F)ccc(CNC(=O)[C@H]3CC[C@H](OCc4ccc(Cl)cc4F)CC3)c2F)n1 | < 1 nM
O=C(NCc1ccc(C(F)(F)F)c(-c2nc(C(F)(F)F)cc(=O)[nH]2)c1F)C1CCN(c2ncc(Cl)cc2F)CC1 | 18 nM

So what's the measured IC50 for this one? Cc1nc(-c2c(C(F)(F)F)ccc(CNC(=O)C3CCN(c4ccc(Cl)c(Cl)c4)CC3)c2F)[nH]c(=O)c1F
4.4 nM

# query: IC50 of entry COc1cc(N2CCC(C(=O)NCc3ccc(C(F)(F)F)c(-c4nc(C(F)(F)F)cc(=O)[nH]4)c3F)CC2)ccc1Cl
7.1 nM
